# Subject of test: recombinant human IL-17AA (Homo sapiens, UniProt Q16552)
# Sequence (Q16552 24-155): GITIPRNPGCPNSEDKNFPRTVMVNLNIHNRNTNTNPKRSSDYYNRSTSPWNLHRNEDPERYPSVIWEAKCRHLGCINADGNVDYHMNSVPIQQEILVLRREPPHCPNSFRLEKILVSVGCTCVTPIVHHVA
# Method description: IL-6 release from NHDF cells, IL-17AA plus TNF-α stimulation
# Type: cell-based
# Settings: NHDF cells, IL-17AA 30 pM + TNF-α 6 pM, 24 hours, IL-6 by ELISA; read-out: IL17AA + TNF IC50 IL-6
Measure: pIC50
Convention used: pIC50 is expressed as -log10 of the molar concentration.

Cc1cc[n+]([O-])c(C)c1-c1ccc(NC(=O)[C@@H](NC(=O)c2ccn3c2CNCC3)C2CCCCCC2)cc1 = 7.81
Cc1cc[n+]([O-])c(C)c1-c1ccc(NC(=O)[C@@H](NC(=O)c2ccc3n2CCNC3)C2CCC(F)(F)CC2)cc1 = 7.16
Cc1cc[n+]([O-])c(C)c1-c1ccc(NC(=O)C(NC(=O)c2ccc3n2CCNC3)C2CCC(C(F)(F)F)CC2)cc1 (stereo not drawn) = 7.52
Cc1nocc1C(=O)NC(C(=O)Nc1ccc(-c2c(Cl)cc[n+]([O-])c2C)cc1)C1CC2CC2C1 (single isomer, unassigned) [Example 146] = 7.24
Cc1cc[n+]([O-])c(C)c1-c1ccc(NC(=O)C(NC(=O)c2ccc3n2CCNC3)C2CC3CC3C2)cc1 (stereo not drawn) [Example 201] = 7.21

Query pIC50 for Cc1cc[n+]([O-])c(C)c1-c1ccc(NC(=O)[C@@H](NC(=O)c2ccc3n2CCN(C)C3)C2CCCCCC2)nc1
7.23
